Tested on: 519858-162-T-J1-PDC complex spheroid growth, % test/control;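 further: seven day drug exposure begun three days after spheroid seeding; 100% = DMSO vehicle wells and lower values mean less viable spheroid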
Experiment: Anticancer human tumor 519858-162-T-J1-PDC patient-derived colon adenocarcinoma cell line growth inhibition [Asc]
Details: second compound 0.0316 µM; first compound 3.16 µM; hits give low values
Listing of recorded viability, T/C by entry.

Some compounds with known viability, T/C results, for comparison:
INSERT INTO results (compound, readout, result) VALUES
  ('O=C(c1cc(Cc2n[nH]c(=O)c3ccccc23)ccc1F)N1CCN(C(=O)C2CC2)CC1 + CNC(C)C(=O)NC1CN(S(=O)(=O)c2cccc(S(=O)(=O)N3CCC4CCC(C(=O)NC(c5ccccc5)c5ccccc5)N4C(=O)C(NC(=O)C(C)NC)C3)c2)CCC2CCC(C(=O)NC(c3ccccc3)c3ccccc3)N2C1=O', 'viability, T/C', '84.5%'),
  ('C#Cc1c(F)ccc2cc(O)cc(-c3ncc4c(N5CC6CCC(C5)N6)nc(OCC56CCCN5CC(F)C6)nc4c3F)c12 (stereo not given) + CNC(C)C(=O)NC1CN(S(=O)(=O)c2cccc(S(=O)(=O)N3CCC4CCC(C(=O)NC(c5ccccc5)c5ccccc5)N4C(=O)C(NC(=O)C(C)NC)C3)c2)CCC2CCC(C(=O)NC(c3ccccc3)c3ccccc3)N2C1=O', 'viability, T/C', '75.2%'),
  ('C#Cc1c(F)ccc2cc(O)cc(-c3ncc4c(N5CC6CCC(C5)N6)nc(OCC56CCCN5CC(F)C6)nc4c3F)c12 (stereo not given) + Cc1c(S(C)(=O)=O)c(-c2cc(F)cc(N3CCN(c4ccc(NS(=O)(=O)c5ccc(NC(CCN6CCC(C(=O)OCCCP(=O)(O)O)CC6)CSc6ccccc6)c(S(=O)(=O)C(F)(F)F)c5)cc4)CC3)c2)c(-c2ccc(Cl)cc2)n1C(C)C', 'viability, T/C', '81.6%'),
  ('C=CC(=O)N1CCN(c2nc(=O)n(-c3c(C)ccnc3C(C)C)c3nc(-c4c(O)cccc4F)c(F)cc23)C(C)C1 (stereo not given) + Cc1c(S(C)(=O)=O)c(-c2cc(F)cc(N3CCN(c4ccc(NS(=O)(=O)c5ccc(NC(CCN6CCC(C(=O)OCCCP(=O)(O)O)CC6)CSc6ccccc6)c(S(=O)(=O)C(F)(F)F)c5)cc4)CC3)c2)c(-c2ccc(Cl)cc2)n1C(C)C', 'viability, T/C', '83.8%');

Next, consider the following compound.
Return reported viability, T/C; argument: C=CC(=O)N1CCN(c2nc(=O)n(-c3c(C)ccnc3C(C)C)c3nc(-c4c(O)cccc4F)c(F)cc23)C(C)C1 (stereo not given) + CNC(C)C(=O)NC1CN(S(=O)(=O)c2cccc(S(=O)(=O)N3CCC4CCC(C(=O)NC(c5ccccc5)c5ccccc5)N4C(=O)C(NC(=O)C(C)NC)C3)c2)CCC2CCC(C(=O)NC(c3ccccc3)c3ccccc3)N2C1=O
101%
